Reference for the values: ChEMBL document CHEMBL1201862

Tested on: DMS-273
Test: NCI tumour cell line growth inhibition, 48 h
The source made the active and inactive calls. Cut-off read from the data, not from the text of the source: active = GI50 up to about 1.1 µM and inactive = higher.
REPORTED_PROPERTY: GI50

>>> value_observed("O=Cc1ccccc1COC(=O)c1cc(C(=O)OCc2ccccc2C=O)c(C(=O)OCc2ccccc2C=O)cc1C(=O)OCc1ccccc1C=O")
"30.3 µM (inactive)"
>>> value_observed("C=C(NC(=O)C(=C)NC(=O)c1csc(C2=NC3c4csc(n4)C4NC(=O)c5csc(n5)C(C(C)(O)C(C)O)NC(=O)C5CSC(=N5)/C(=C/C)NC(=O)C(C(C)O)NC(=O)c5csc(n5)C3(CC2)NC(=O)C(C)NC(=O)C(=C)NC(=O)C(C)NC(=O)C(C(C)CC)NC2C=Cc3c(C(C)O)cc(nc3C2O)C(=O)OC4C)n1)C(N)=O (stereo unspecified)")
"1.37 µM (inactive)"
>>> value_observed("COC(=O)C1Cc2c(n(C)c3ccccc23)C(c2ccccc2)N1 (stereo unspecified)")
"38.8 µM (inactive)"

Would you kindly share the measured GI50 for O/N=C1/C(=C/c2ccc3c(c2)OCO3)CCCC1C(NO)c1ccc2c(c1)OCO2 (stereo unspecified) ?
21.8 µM (inactive)

Endpoint output: GI50 of "C=CC(OCC)(OCC)OCC" . Value?
18.2 µM (inactive)

Requested field: GI50. Item: "COc1ccc([C@@H]2CC(=O)NCCCNCCCCNCCCN2)cc1"
> 100 µM (inactive)

Entry under review: "CC(=O)c1cccc(NC(=O)C(=O)Nn2c(N)nnc2N)c1" . Reported GI50?
> 100 µM (inactive)

Fill in the blank: the reported GI50 of Cc1c2n(c(=O)[nH]c1=O)C1OC(CO)C(O2)C1N=[N+]=[N-] (stereo unspecified) is ____.
> 100 µM (inactive)
